Assay: Multiple ascending dose (MAD) study: multiple-dose pharmacokinetics
Format: in vivo, human
Settings: human, plasma, oral, 200 mg, 200 mg BID × 14 Days, Day 14
ATTRIBUTE MEASURED: Tmax (h)
Numbers only here, please. The scale is h.

Recorded result, CC(=O)c1nn(CC(=O)N2[C@H](C(=O)Nc3nc(Br)ccc3C)C[C@@]3(C)C[C@@H]23)c2ccc(-c3cnc(C)nc3)cc12 , Tmax: 1.81

====

Test: Phase I single ascending dose (SAD) study: plasma and urine pharmacokinetics
Format: in vivo, human
Details: human, plasma, oral, 40 mg, 40 mg single dose, fasted, plasma; read-out: AUC0-inf, GM
ATTRIBUTE MEASURED: AUC(0-inf) (ng·h/mL)
Numbers only here, please. The scale is ng·h/mL.

Recorded result, CC(=O)c1nn(CC(=O)N2[C@H](C(=O)Nc3nc(Br)ccc3C)C[C@@]3(C)C[C@@H]23)c2ccc(-c3cnc(C)nc3)cc12 , AUC(0-inf): 492
